# activity annotations
- Measured target: Nicotinamide N-methyltransferase (Homo sapiens) (UniProt P40261)
- Sequence (P40261 whole entry, looked up): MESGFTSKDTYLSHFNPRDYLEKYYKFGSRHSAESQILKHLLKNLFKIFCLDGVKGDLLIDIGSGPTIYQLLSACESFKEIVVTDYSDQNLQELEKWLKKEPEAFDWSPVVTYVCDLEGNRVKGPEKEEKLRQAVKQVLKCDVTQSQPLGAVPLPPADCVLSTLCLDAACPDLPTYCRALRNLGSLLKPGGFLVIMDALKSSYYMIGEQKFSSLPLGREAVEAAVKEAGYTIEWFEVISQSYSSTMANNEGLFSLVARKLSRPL
- Method: Confirmatory Screen for Target Class Profiling of Small Molecule Inhibitors of Methyltransferases (AID 1745852)
- Measurement setup: MTase-Glo luminescence, SAH detection, recombinant enzyme; measured here: NNMT max response; stronger effect = lower value
Property label: activity (%)

1. C/C=C/c1ccc2c(c1)[C@@H](C)[C@H](c1ccc(O)cc1)O2	-59.1
2. O=C(/C=C/c1ccccc1)OC[C@]12O[C@H]1[C@@H](O)[C@@H]1C=CO[C@@H](O[C@@H]3O[C@H](CO)[C@@H](O)[C@H](O)[C@H]3O)[C@@H]12	-5.73
3. CC1=CC(=O)C2(OC3OC(C)C(O)C(OC(=O)/C=C/c4ccccc4)C3O)C=COC(OC3OC(CO)C(O)C(O)C3O)C12 (stereo not drawn)	-1.08

###

- Method: P-glycoprotein substrates identified in KB-8-5-11 adenocarcinoma cell line, qHTS therapeutic library screen (AID 1346987); also: nearly all actives have a fitted effect of over 65% in size
- Measurement setup: KB-8-5-11 (P-gp overexpressing) viability, CellTiter-Glo, 72 h; series mostly up to 44.5 µM
Inconclusive results are not listed. Activity calls are given as the source filed them. Calls follow the shape of the dose curve; as a rule, active = well fitted inhibition curve with a large enough effect; inconclusive = small, poorly fitted or top-dose-only effect; inactive = flat fitted curve, though single readings scatter.
Outcomes: 1 (yes) = active, 0 (no) = inactive

1) C[C@H]1C(=O)N2c3ccccc3[C@@]3(O)C[C@@H]4C(=O)N[C@](C)(c5nc6ccccc6c(=O)n54)N1[C@@H]23	0 (no)
2) O=C(O)c1cccc(S(=O)(=O)N2CCc3ccccc3C2)c1	0 (no)
3) C=CC(=O)Nc1cccc(CN2C(=O)N(c3c(Cl)c(OC)cc(OC)c3Cl)Cc3cnc(NCCCCN(CC)CC)nc32)c1	0 (no)
4) CC1(C)CC2C=C(C(=O)O)C3COC(=O)C(O)(CO)C23C1 (configuration not stated)	0 (no)
5) NC1CCC(Nc2cc(-c3cccc(NCc4cccc(F)c4)n3)c(Cl)cn2)CC1 (configuration not stated)	1 (yes)
6) COc1ccc([C@@]2(O)c3c(ccc(CC=C(C)C)c3O)NC(=O)[C@@H]2OC)cc1	0 (no)
7) C=C(CCC1=C(C)[C@H]2[C@H](CC3[C@@H]4CC=C5C[C@@H](O)C[C@@H](O)[C@]5(C)C4[C@H](O)C[C@@]32C)O1)CO[C@@H]1O[C@H](CO)[C@@H](O)[C@H](O)[C@H]1O (some centres not stated)	1 (yes)
8) C[S+](CC[C@H](N)C(=O)[O-])C[C@H]1O[C@@H](n2cnc3c(N)ncnc32)[C@H](O)[C@@H]1O (some centres not stated)	0 (no)
9) COc1ccc(N2CCOCC2)c2sc(NC(=O)N3CCC(C)(O)CC3)nc12	0 (no)
10) O=C(O)/C=C/c1ccc(-c2ccc(O)c(C34CC5CC(CC(C5)C3)C4)c2)cc1	1 (yes)
11) COc1cc2nc(N3CCC(N4CCCCC4)CC3)nc(NC3CCCCCC3)c2cc1OC	1 (yes)
12) C[C@H](NC(c1cccc(C[P+](=O)O)c1)[C@H](C)O)c1ccc(Cl)c(Cl)c1 (some centres not stated)	0 (no)
13) Cc1cc(C)cc(C(=O)NOCCCCCC(=O)NO)c1	1 (yes)
14) CN(C)C/C=C/C(=O)Nc1cccc(C(=O)Nc2cccc(Nc3ncc(Cl)c(-c4c[nH]c5ccccc45)n3)c2)c1	1 (yes)
15) COc1cc2c3c(cc4ccccc4c3c1O)NC2=O	0 (no)
16) COc1cccc2cc3c(c(O[C@@H]4O[C@H](CO[C@@H]5O[C@H](CO)[C@@H](O)[C@H](O)[C@H]5O)[C@@H](O)[C@H](O)[C@H]4O)c12)C(C)OC3=O (some centres not stated)	0 (no)
17) COc1cc(/C=C/CO)cc(OC)c1O[C@@H]1O[C@H](CO[C@@H]2O[C@H](CO)[C@@H](O)[C@H](O)[C@H]2O)[C@@H](O)[C@H](O)[C@H]1O	0 (no)
18) CC(C)=C/C=C\[C@H](C)[C@H]1CC[C@]2(C)C[C@@H]3C(C)=CC(=O)C3/C(CO)=C\C[C@@H]12 (some centres not stated)	0 (no)
19) CC1(CCOC2OC(CO)C(O)C(O)C2O)CCC23OC2(C1)C(O)CC1C(C)(C(=O)O)CCCC13C (configuration not stated)	0 (no)
20) CCCOc1ccc(-c2nc(OC)c3ccccc3n2)cc1	0 (no)
21) C=C1CCCC2(C)CC3(OC)OC(=O)C(C)=C3CC12 (configuration not stated)	0 (no)
22) CCOc1ccc(NC(=S)N2CCC(C(O)(c3ccccc3)c3ccccc3)CC2)cc1	0 (no)
23) COc1cc2ncnc(Nc3cccc(O)c3)c2cc1OC	0 (no)
24) C[C@@H](O)[C@H](NC(=O)c1ccc(C#Cc2ccc(CN3CCOCC3)cc2)cc1)C(=O)NO	0 (no)
25) CC(C)[C@@H]1C(=O)N(S(C)(=O)=O)[C@@H]2CCN(C(=O)/C=C/CN3CCCCC3)[C@H]21	0 (no)
26) C[C@H]1CC(=O)Nc2cccc(-c3cnn(C(C)(C)C)c3)c2N1	0 (no)
27) COc1cc2ncnc(N3CCC(Oc4cnc5ccccc5n4)C3)c2cc1OC (configuration not stated)	1 (yes)
